From: patent US11464770B2

Recorded IC50, one value per entry.
# Test system: melanoma cell lines
# Assay overview: Cell based assay, cell viability (CellTiter-Glo), melanoma cell lines
# Experimental parameters: Homo sapiens; LOX-IMVI cell line

The following molecules have reported results that may help.
{"columns": ["Molecule", "IC50"],
 "data": [
  ["CSc1c(C(C)=O)c(=O)c2c(Cl)ccc(Br)c2n1S(=O)(=O)c1ccc([N+](=O)[O-])cc1", "> 2000 nM"],
  ["CC(=O)c1c([S+]([O-])Cc2ccccc2)n(C(=O)c2ccc(Br)cc2)c2c(Br)ccc(Cl)c2c1=O (stereo not shown)", "> 2000 nM"],
  ["CC(=O)c1c(SCc2ccc(Cl)cc2)[nH]c2c(Br)ccc(Cl)c2c1=O", "> 2000 nM"]
]}

With those in mind, consider the next molecule.
Lab note: CC(=O)c1c([S+](C)[O-])[nH]c2c(Cl)ccc(Cl)c2c1=O (stereo not shown) gave IC50 of 1350 nM
